System: ATS95
Assay Info: qHTS profiling for inhibitors of Plasmodium falciparum proliferation (AID 504749); further: nearly all actives have a fitted effect of over 60% in size
Experimental Context: P. falciparum in erythrocytes, SYBR Green DNA, 72 h; series mostly up to 28.7 µM
Results filed as inconclusive are left out. Activity calls are given as the source filed them. The call rests on the fitted dose curve; in most records, active means well fitted inhibition curve with a large enough effect; inconclusive means small, poorly fitted or top-dose-only effect; inactive means flat fitted curve, though single readings scatter.
The categories you may choose from are 1 (yes) = active, 0 (no) = inactive

Could you check what this test reported for CC(CCC(=O)O)C1CCC2C3C(=O)C[C@@H]4CC(=O)CC[C@@]4(C)C3CC(=O)[C@]12C (stereo partly specified) ?
0 (no)

Further cases:
Could you check what this test reported for Cc1cnc(NC(=O)C2C(=O)c3ccccc3S(=O)(=O)N2C)s1 (stereo unspecified) ?
0 (no)

Could you check what this test reported for `C[S+](C)CC[C@H](N)C(=O)O` ?
0 (no)

Could you check what this test reported for `O=C1[C@@H]2C[C@@H]3C[C@H]1C[C@@](O)(C3)C2` ?
0 (no)

Could you check what this test reported for Cc1c(C)c2c(c(C)c1O)CCC(C)(CCCC(C)CCCC(C)CCCC(C)C)O2 (stereo unspecified) ?
0 (no)

Could you check what this test reported for `CN(C)CC[C@@](O)(c1ccccc1)c1ccccc1Cl` ?
1 (yes)

Could you check what this test reported for O=c1[nH]c(=O)n(C2C[C@H](O)[C@@H](CO)O2)cc1C(F)(F)F (stereo partly specified) ?
0 (no)

Could you check what this test reported for `Clc1ccc(CS[C@@H](Cn2ccnc2)c2ccc(Cl)cc2Cl)cc1` ?
1 (yes)

Could you check what this test reported for CCCCCCCCCCCCCCCC(=O)OCC(COP(=O)(O)OCC[N+](C)(C)C)OC(=O)CCCCCCCCCCCCCCC (stereo unspecified) ?
0 (no)

Could you check what this test reported for CCCCC(=O)O[C@]1(C(=O)CO)CCC2C3CCC4=CC(=O)CCC4(C)C3C(O)CC21C (stereo partly specified) ?
0 (no)

Could you check what this test reported for `CC1(C)C2CC[C@]1(C)[C@@H](O)C2` ?
0 (no)

---

Assay Info: Cell Viability - LYMP2-006 (AID 978);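 further: cells exposed to compound for 24 hours; nearly all actives have a fitted effect of over 60% in size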
Experimental Context: LYMP2-006 lymphoblastoid cell viability, qHTS; series mostly up to 92.2 µM
Records with an inconclusive call do not appear. Active and inactive are the calls of the source. Calls come from the whole dose curve; as a rule, active = well fitted cell-killing curve with a large enough effect; inconclusive = small, poorly fitted or top-dose-only effect; inactive = flat fitted curve, though single readings scatter.
The categories you may choose from are yes (1) (active), no (0) (inactive)

Could you check what this test reported for `Cc1cc(O)c(C(C)(C)C)cc1Sc1cc(C(C)(C)C)c(O)cc1C` ?
yes (1)

Could you check what this test reported for `c1ccc2c(c1)ccc1cc3c(ccc4ccccc43)cc12` ?
no (0)

Could you check what this test reported for `Cc1cccc(O)c1C` ?
no (0)

Could you check what this test reported for `O=Cc1ccc(Cl)c(Cl)c1` ?
no (0)

Could you check what this test reported for `Oc1ccc2cc(SSc3ccc4cc(O)ccc4c3)ccc2c1` ?
yes (1)

Could you check what this test reported for `CCCCCCCC[N+](CCCCCCCC)(CCCCCCCC)CCCCCCCC` ?
yes (1)

---

Tested on: TAB113
Assay Info: qHTS profiling for inhibitors of Plasmodium falciparum proliferation (AID 504749); further: nearly all actives have a fitted effect of over 60% in size
Experimental Context: P. falciparum in erythrocytes, SYBR Green DNA, 72 h; series mostly up to 28.7 µM
Inconclusive results are not listed. Calls of active or inactive are those of the source. Calls come from the whole dose curve; as a rule, active = well fitted inhibition curve with a large enough effect; inconclusive = small, poorly fitted or top-dose-only effect; inactive = flat fitted curve, though single readings scatter.
The categories you may choose from are active, inactive

Could you check what this test reported for C[C@@H]1C(SC2Cn3cnc[n+]3C2)=C(C(=O)[O-])N2C(=O)[C@H]([C@@H](C)O)[C@@H]12 (some centres undefined) ?
inactive

Further cases:
Could you check what this test reported for C[C@]12CC[C@@H]3c4ccc(O)cc4C[C@@H](CCCCCCCCCS(=O)CCCC(F)(F)C(F)(F)F)C3[C@@H]1CC[C@@H]2O (some centres undefined) ?
active

Could you check what this test reported for `O=[N+]([O-])O[C@H]1CO[C@H]2[C@@H]1OC[C@H]2O` ?
inactive

Could you check what this test reported for `C#C[C@]1(O)CC[C@H]2[C@H]3[C@H](CC[C@@]21C)C1=C(CC(=O)CC1)C[C@@H]3C` ?
inactive
